Below, each of the variants is paired with its reported protein stability index value.
B1: FCHO1 (parent)
chain: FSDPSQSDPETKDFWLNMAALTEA

- Variants of: B1
- MEASUREMENT PROTOCOL: protein stability index of a GFP-peptide fusion (GPS, HEK-293T) (PSI 1-6); higher = more stable;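 also: lentivirally expressed fusions sorted by FACS into six bins by GFP to DsRed ratio, PSI derived from sequencing read proportions per bin multiplied by bin number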
- EXPERIMENTAL SETUP: c terminus: a fixed tail appended
MEASUREMENT KIND: protein stability index

MUTANT DESIGNATION: T22C
QUANTITATIVE RESULT: 3.09
--
MUTANT DESIGNATION: M18S
QUANTITATIVE RESULT: 3.12
--
MUTANT DESIGNATION: T11N
QUANTITATIVE RESULT: 3.12
--
MUTANT DESIGNATION: D3H
QUANTITATIVE RESULT: 1.69
--
MUTANT DESIGNATION: A19M
QUANTITATIVE RESULT: 2.54
--
MUTANT DESIGNATION: A19Q
QUANTITATIVE RESULT: 3.02
--
MUTANT DESIGNATION: F1E
QUANTITATIVE RESULT: 4.97
--
MUTANT DESIGNATION: K12Y
QUANTITATIVE RESULT: 2.97
--
MUTANT DESIGNATION: P9I
QUANTITATIVE RESULT: 2.82
--
MUTANT DESIGNATION: M18A
QUANTITATIVE RESULT: 3.02
--
MUTANT DESIGNATION: D8L
QUANTITATIVE RESULT: 2.63
--
MUTANT DESIGNATION: Q6H
QUANTITATIVE RESULT: 2.59
--
MUTANT DESIGNATION: N17H
QUANTITATIVE RESULT: 2.74
--
MUTANT DESIGNATION: F14H
QUANTITATIVE RESULT: 4.51
--
MUTANT DESIGNATION: E23H
QUANTITATIVE RESULT: 2.17
--
MUTANT DESIGNATION: Q6I
QUANTITATIVE RESULT: 2.4
--
MUTANT DESIGNATION: K12S
QUANTITATIVE RESULT: 3.26
--
MUTANT DESIGNATION: P4F
QUANTITATIVE RESULT: 2.16
--
MUTANT DESIGNATION: D8Y
QUANTITATIVE RESULT: 2.23
--
MUTANT DESIGNATION: P4K
QUANTITATIVE RESULT: 2.04
--
MUTANT DESIGNATION: A20I
QUANTITATIVE RESULT: 2.38
--
MUTANT DESIGNATION: D3G
QUANTITATIVE RESULT: 1.74
--
MUTANT DESIGNATION: D3V
QUANTITATIVE RESULT: 1.45
--
MUTANT DESIGNATION: A20G
QUANTITATIVE RESULT: 2.65
--
MUTANT DESIGNATION: Q6T
QUANTITATIVE RESULT: 2.68
--
MUTANT DESIGNATION: F1C
QUANTITATIVE RESULT: 4.02
--
MUTANT DESIGNATION: S5N
QUANTITATIVE RESULT: 2.79
--
MUTANT DESIGNATION: E23W
QUANTITATIVE RESULT: 2.04
--
MUTANT DESIGNATION: F1Q
QUANTITATIVE RESULT: 4.72
--
MUTANT DESIGNATION: N17A
QUANTITATIVE RESULT: 2.56
--
MUTANT DESIGNATION: S7W
QUANTITATIVE RESULT: 2
--
MUTANT DESIGNATION: M18T
QUANTITATIVE RESULT: 2.62
--
MUTANT DESIGNATION: L21M
QUANTITATIVE RESULT: 2.77
--
MUTANT DESIGNATION: S5K
QUANTITATIVE RESULT: 2.94
--
MUTANT DESIGNATION: P9A
QUANTITATIVE RESULT: 3.12
--
MUTANT DESIGNATION: Q6W
QUANTITATIVE RESULT: 1.75
--
MUTANT DESIGNATION: W15R
QUANTITATIVE RESULT: 4.68
--
MUTANT DESIGNATION: E10V
QUANTITATIVE RESULT: 2.63
--
MUTANT DESIGNATION: A24V
QUANTITATIVE RESULT: 1.82
--
MUTANT DESIGNATION: A24F
QUANTITATIVE RESULT: 2.56
--
MUTANT DESIGNATION: A24N
QUANTITATIVE RESULT: 3.23
--
MUTANT DESIGNATION: T11H
QUANTITATIVE RESULT: 2.87
--
MUTANT DESIGNATION: D3P
QUANTITATIVE RESULT: 2.4
--
MUTANT DESIGNATION: S5D
QUANTITATIVE RESULT: 3.93
--
MUTANT DESIGNATION: P9T
QUANTITATIVE RESULT: 3.19
--
MUTANT DESIGNATION: M18E
QUANTITATIVE RESULT: 3.98
--
MUTANT DESIGNATION: T22S
QUANTITATIVE RESULT: 2.34
--
MUTANT DESIGNATION: K12M
QUANTITATIVE RESULT: 3.07
--
MUTANT DESIGNATION: M18R
QUANTITATIVE RESULT: 3.11
--
MUTANT DESIGNATION: D13P
QUANTITATIVE RESULT: 2.37
--
MUTANT DESIGNATION: P4W
QUANTITATIVE RESULT: 1.85
--
MUTANT DESIGNATION: F14R
QUANTITATIVE RESULT: 4.62
--
MUTANT DESIGNATION: D8W
QUANTITATIVE RESULT: 1.86
--
MUTANT DESIGNATION: T11R
QUANTITATIVE RESULT: 2.69
--
MUTANT DESIGNATION: K12D
QUANTITATIVE RESULT: 4.39
--
MUTANT DESIGNATION: W15D
QUANTITATIVE RESULT: 5.32
--
MUTANT DESIGNATION: E10P
QUANTITATIVE RESULT: 2.66
--
MUTANT DESIGNATION: W15P
QUANTITATIVE RESULT: 4.66
